# SUBJECT OF TEST: T1, human GIPR (human, UniProt P48546 22-466)
# T1 sequence (looked up): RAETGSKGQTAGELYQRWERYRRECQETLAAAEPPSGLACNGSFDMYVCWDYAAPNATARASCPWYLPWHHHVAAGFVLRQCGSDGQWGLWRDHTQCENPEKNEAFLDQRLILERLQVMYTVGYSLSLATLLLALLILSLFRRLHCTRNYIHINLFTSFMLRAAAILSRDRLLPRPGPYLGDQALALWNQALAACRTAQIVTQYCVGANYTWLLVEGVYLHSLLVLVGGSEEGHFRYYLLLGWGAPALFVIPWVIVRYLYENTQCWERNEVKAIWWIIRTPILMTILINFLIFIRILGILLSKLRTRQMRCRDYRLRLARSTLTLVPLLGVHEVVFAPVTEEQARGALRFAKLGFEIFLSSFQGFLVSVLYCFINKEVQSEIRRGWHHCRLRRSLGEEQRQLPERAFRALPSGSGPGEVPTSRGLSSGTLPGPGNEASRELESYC
# MEASUREMENT DESCRIPTION: cell-based or functional assay
Bridges are numbered along the chain shown (N, C = ends). Where no end group is shown, it is not given here. [ ]: non-standard residue; d: D form. staple K20 = not defined here; staple K4 = not defined here; staple K5 = not defined here; staple K6 = not defined here; staple K7 = not defined here; staple K8 = not defined here; staple K9 = not defined here; Aib = CC(C)(N)C(=O)O
QUANTITY: EC50 cAMP 0% FBS

{"BINDER": "Y[Aib]EGTFTSDYSIYLDKKAQ[Aib]AFVKWLIAQGPSSGAPPPS (linker 17-24 via staple K6; reading uncertain) [Conjugate 160]", "QUANTITY": "EC50 cAMP 0% FBS", "ENDPOINT RESULT": "7.3 nM"}
{"BINDER": "Y[Aib]EGTFTSDYSIYKDKQAA[Aib]KFKNWLKAGGPSSGAPPPS (linker 23-27 via staple K9; reading uncertain) [Conjugate 159]", "QUANTITY": "EC50 cAMP 0% FBS", "ENDPOINT RESULT": "0.0312 nM"}
{"BINDER": "Y[Aib]EGTFTSDYSIYKDKQAA[Aib]KFVNWLLAGGPSSGAPPPS (linker 14-21 via staple K4; reading uncertain) [Conjugate 142]", "QUANTITY": "EC50 cAMP 0% FBS", "ENDPOINT RESULT": "0.008 nM"}
{"BINDER": "Y[Aib]EGTFTSDYSIYLDKKAQ[Aib]AFVKWLIAQGPSSGAPPPS (linker 17-24 via staple K4; reading uncertain) [Conjugate 146]", "QUANTITY": "EC50 cAMP 0% FBS", "ENDPOINT RESULT": "0.03 nM"}
{"BINDER": "YXEGTFTSDYSIYKDKQAAXKFVNWLLAGGPSSGAPPPS (staple K5 on Lys 14, 21; Aib 2, 20) [Conjugate 141]", "QUANTITY": "EC50 cAMP 0% FBS", "ENDPOINT RESULT": "0.0048 nM"}
{"BINDER": "Y[Aib]EGTFTSDYSIYLDKKAQ[Aib]AFVKWLIAQGPSSGAPPPS (linker 17-24 via staple K9; reading uncertain) [Conjugate 164]", "QUANTITY": "EC50 cAMP 0% FBS", "ENDPOINT RESULT": "68.3 nM"}
{"BINDER": "Y[Aib]EGTFTSDYSIYLDKKAQ[Aib]AFVKWLIAQGPSSGAPPPS (linker 17-24 via staple K8; reading uncertain) [Conjugate 161]", "QUANTITY": "EC50 cAMP 0% FBS", "ENDPOINT RESULT": "0.01 nM"}
{"BINDER": "Y[Aib]EGTFTSDYSIYLDKKAA[Aib]EFVKWLLAGGPSSGAPPPS (linker 17-24 via staple K6; reading uncertain) [Conjugate 147]", "QUANTITY": "EC50 cAMP 0% FBS", "ENDPOINT RESULT": "0.02 nM"}
{"BINDER": "Y[Aib]EGTFTSDYSIYLDKKAA[Aib]EFVKWLLAGGPSSGAPPPS (linker 17-24 via staple K8; reading uncertain) [Conjugate 148]", "QUANTITY": "EC50 cAMP 0% FBS", "ENDPOINT RESULT": "0.03 nM"}
{"BINDER": "Y[Aib]EGTFTSDYSIYKDKQAA[Aib]KFKNWLKAGGPSSGAPPPS (linker 23-27 via staple K5; reading uncertain) [Conjugate 158]", "QUANTITY": "EC50 cAMP 0% FBS", "ENDPOINT RESULT": "30.5 nM"}
{"BINDER": "Y[Aib]EGTFTSDYSIYKDKQAA[Aib]KFVNWLLAGGPSSGAPPPS (linker 14-21 via staple K7; reading uncertain) [Conjugate 154]", "QUANTITY": "EC50 cAMP 0% FBS", "ENDPOINT RESULT": "0.02 nM"}
{"BINDER": "Y[Aib]EGTFTSDYSIYKDKQAA[Aib]KFKNWLKAGGPSSGAPPPS (linker 23-27 via staple K6; reading uncertain) [Conjugate 155]", "QUANTITY": "EC50 cAMP 0% FBS", "ENDPOINT RESULT": "1.66 nM"}
{"BINDER": "Y[Aib]EGTFTSDYSIYKDKQAA[Aib]KFKNWLKAGGPSSGAPPPS (linker 23-27 via staple K8; reading uncertain) [Conjugate 156]", "QUANTITY": "EC50 cAMP 0% FBS", "ENDPOINT RESULT": "2.82 nM"}
{"BINDER": "Y[Aib]EGTFTSDYSIYLDKKAQ[Aib]AFVKWLIAQGPSSGAPPPS (linker 17-24 via staple K20; reading uncertain) [Conjugate 162]", "QUANTITY": "EC50 cAMP 0% FBS", "ENDPOINT RESULT": "0.02 nM"}
{"BINDER": "Y[Aib]EGTFTSDYSIYLDKKAA[Aib]EFVKWLLAGGPSSGAPPPS (linker 17-24 via staple K20; reading uncertain) [Conjugate 149]", "QUANTITY": "EC50 cAMP 0% FBS", "ENDPOINT RESULT": "0.01 nM"}
{"BINDER": "Y[Aib]EGTFTSDYSIYKDKQAA[Aib]KFVNWLLAGGPSSGAPPPS (linker 14-21 via staple K9; reading uncertain) [Conjugate 144]", "QUANTITY": "EC50 cAMP 0% FBS", "ENDPOINT RESULT": "0.0022 nM"}
{"BINDER": "Y[Aib]EGTFTSDYSIYLDKKAA[Aib]EFVKWLLAGGPSSGAPPPS (linker 17-24 via staple K7; reading uncertain) [Conjugate 150]", "QUANTITY": "EC50 cAMP 0% FBS", "ENDPOINT RESULT": "0.02 nM"}

Reference source for all entries: patent US20230071371A1
